- tgt: IRAK-M (Homo sapiens, UniProt Q9Y616)
- Sequence (Q9Y616 1-596): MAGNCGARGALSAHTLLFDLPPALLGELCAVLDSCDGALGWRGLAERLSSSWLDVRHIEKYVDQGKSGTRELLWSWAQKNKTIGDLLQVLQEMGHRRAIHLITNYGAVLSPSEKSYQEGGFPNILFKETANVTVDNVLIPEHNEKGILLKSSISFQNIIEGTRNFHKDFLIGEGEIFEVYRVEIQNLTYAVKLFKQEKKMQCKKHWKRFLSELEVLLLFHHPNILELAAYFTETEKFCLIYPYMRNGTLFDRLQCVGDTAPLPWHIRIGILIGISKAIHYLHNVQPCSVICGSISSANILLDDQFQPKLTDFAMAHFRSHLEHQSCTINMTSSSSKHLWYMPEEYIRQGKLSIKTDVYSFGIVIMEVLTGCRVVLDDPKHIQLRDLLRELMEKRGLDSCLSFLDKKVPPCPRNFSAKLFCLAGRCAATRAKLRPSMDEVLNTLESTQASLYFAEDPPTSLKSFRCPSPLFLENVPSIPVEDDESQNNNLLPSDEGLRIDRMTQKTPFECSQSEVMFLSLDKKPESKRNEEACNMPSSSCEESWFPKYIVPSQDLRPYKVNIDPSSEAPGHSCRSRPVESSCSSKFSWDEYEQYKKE
- test_method_notes: IRAK-M binding inhibitory activity (KINOMEscan active site-dependent competitive assay)
- Design: purchased Eurofins Discover X
- run_parameters: concentration of the test compound 1 μM; first symbol of cell; read-out: IRAK-M binding inhibition activity % Ctrl
Counter-ions that a name gives are not always drawn.
Catalogue of remaining binding at 1 µM readings, one per entry.

Completed entries (count: 2):
>>> assay_result("CN[C@@H](C)C(=O)N[C@H](C(=O)N1CCN(C(=O)c2c(F)c3cc(F)ccc3n2CC(=O)N(C)CCOCCOCCOCCOc2cc(CN3CCC(Oc4ccnc5ccsc45)CC3)on2)CC1)C1CCCCC1")
"25 to 50%"
>>> assay_result("CN[C@@H](C)C(=O)N[C@H](C(=O)N1CCN(C(=O)c2cc3cc(F)c(F)cc3n2CC(=O)N(C)CCOCCOCCOCCOc2cc(CN3CCC(Oc4ccnc5ccsc45)CC3)on2)CC1)C1CCCCC1 [Example 24, hydrochloride]")
"< 25%"

Alright, here's another compound for you.
*Q* Consider the compound Oc1cc(CN2CCC(Oc3ccnc4ccsc34)CC2)on1 tested on IRAK-M (Homo sapiens, UniProt Q9Y616); state its remaining binding at 1 µM.
*A* 50 to 75%

###

Catalogue of remaining binding at 1 µM readings, one per entry.
- tgt: IRAK-M (Homo sapiens)
- Sequence (Q9Y616 1-596): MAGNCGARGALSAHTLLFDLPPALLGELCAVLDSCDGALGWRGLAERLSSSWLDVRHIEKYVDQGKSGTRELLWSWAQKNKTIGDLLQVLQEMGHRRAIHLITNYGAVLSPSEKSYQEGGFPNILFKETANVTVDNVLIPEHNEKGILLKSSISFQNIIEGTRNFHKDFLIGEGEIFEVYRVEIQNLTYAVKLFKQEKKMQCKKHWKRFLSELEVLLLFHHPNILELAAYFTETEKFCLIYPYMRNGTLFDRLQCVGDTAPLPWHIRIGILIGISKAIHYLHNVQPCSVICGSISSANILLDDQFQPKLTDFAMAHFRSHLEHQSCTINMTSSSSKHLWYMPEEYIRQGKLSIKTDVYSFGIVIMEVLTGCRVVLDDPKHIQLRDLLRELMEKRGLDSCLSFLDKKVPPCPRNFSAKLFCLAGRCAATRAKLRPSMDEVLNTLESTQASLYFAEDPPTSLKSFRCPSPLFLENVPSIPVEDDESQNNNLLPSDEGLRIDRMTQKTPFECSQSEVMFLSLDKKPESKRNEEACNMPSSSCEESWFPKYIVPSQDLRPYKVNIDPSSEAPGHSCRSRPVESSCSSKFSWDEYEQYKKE
- test_method_notes: IRAK-M binding inhibitory activity (KINOMEscan active site-dependent competitive assay)
- Set-up: purchased Eurofins Discover X
- run_parameters: concentration of the test compound 1 μM; first symbol of cell; read-out: IRAK-M binding inhibition activity % Ctrl

*Q* Note down remaining binding at 1 µM recorded for CS(=O)(=O)N1CCC(Oc2ncnc3ccsc23)CC1 [Ref. example 39]
*A* 50 to 75%

*Q* Note down remaining binding at 1 µM recorded for CN[C@@H](C)C(=O)N[C@H](C(=O)N1CCN(C(=O)c2c(F)c3cc(F)ccc3n2CC(=O)N2CCC[C@H]2COc2cc(CN3CCC(Oc4ccnc5ccsc45)CC3)on2)CC1)C1CCCCC1 [Example 41]
*A* 25 to 50%

*Q* Note down remaining binding at 1 µM recorded for CN[C@@H](C)C(=O)N[C@H](C(=O)N1CCN(C(=O)c2c(C(=O)N(C)CCOCCOCCOc3cc(CN4CCC(Oc5ccnc6ccsc56)CC4)on3)c3cc(F)ccc3n2C)CC1)[C@H](O)C(C)C [Example 14]
*A* < 25%

*Q* Note down remaining binding at 1 µM recorded for CCOc1ccc(Nc2ncnc3ccsc23)cc1 [Ref. example 65]
*A* ≥ 75%

*Q* Note down remaining binding at 1 µM recorded for c1ccc(OC2CCOC2)c(Nc2ncnc3ccsc23)c1 (centres unmarked) [Ref. example 19]
*A* 50 to 75%

*Q* Note down remaining binding at 1 µM recorded for O=C1NC(=O)c2cc(Nc3ncnc4ccsc34)ccc21 [Ref. example 27]
*A* 50 to 75%

*Q* Note down remaining binding at 1 µM recorded for CN[C@@H](C)C(=O)N[C@H](C(=O)N1CCC[C@H]1c1nc(C(=O)c2cccc(OCCOCCOCCOCCOc3cc(CN4CCC(Oc5ccnc6ccsc56)CC4)on3)c2)cs1)C1CCCCC1 [Example 60]
*A* < 25%

*Q* Note down remaining binding at 1 µM recorded for NC(=O)c1ccc(Nc2ncnc3ccsc23)c(OC2CCOC2)c1 (centres unmarked) [Ref. example 11]
*A* 50 to 75%

###

- tgt: IRAK-M (Homo sapiens)
- Sequence (Q9Y616 1-596): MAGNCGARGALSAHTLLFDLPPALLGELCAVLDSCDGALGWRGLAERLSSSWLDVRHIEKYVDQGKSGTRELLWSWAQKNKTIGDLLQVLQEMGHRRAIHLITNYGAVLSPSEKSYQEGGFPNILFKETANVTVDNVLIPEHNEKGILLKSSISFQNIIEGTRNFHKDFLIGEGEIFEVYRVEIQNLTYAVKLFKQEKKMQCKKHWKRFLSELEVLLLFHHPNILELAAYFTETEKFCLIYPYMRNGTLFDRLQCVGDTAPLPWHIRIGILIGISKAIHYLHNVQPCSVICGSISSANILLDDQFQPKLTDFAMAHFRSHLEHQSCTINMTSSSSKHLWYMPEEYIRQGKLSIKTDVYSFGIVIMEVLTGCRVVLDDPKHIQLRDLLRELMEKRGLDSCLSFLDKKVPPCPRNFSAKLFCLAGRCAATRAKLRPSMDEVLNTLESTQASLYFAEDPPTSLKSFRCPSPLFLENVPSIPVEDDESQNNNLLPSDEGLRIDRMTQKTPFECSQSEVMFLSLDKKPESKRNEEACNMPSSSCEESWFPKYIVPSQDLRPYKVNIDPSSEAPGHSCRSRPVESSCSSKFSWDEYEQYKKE
- test_method_notes: IRAK-M binding inhibitory activity (KINOMEscan active site-dependent competitive assay)
- Set-up: purchased Eurofins Discover X
- run_parameters: concentration of the test compound 1 μM; first symbol of cell; read-out: IRAK-M binding inhibition activity % Ctrl
Catalogue of remaining binding at 1 µM readings, one per entry.

*Q* Note down remaining binding at 1 µM recorded for CN[C@@H](C)C(=O)N[C@H](C(=O)N1CCN(C(=O)c2c(C)c3ccccc3n2CC(=O)N(C)CCOCCOCCOCCOc2cc(CN3CCC(Oc4ccnc5ccsc45)CC3)on2)CC1)C1CCCCC1
*A* 25 to 50%

*Q* Note down remaining binding at 1 µM recorded for COc1cc(Nc2ncnc3ccsc23)ccn1
*A* 25 to 50%

*Q* Note down remaining binding at 1 µM recorded for O=S(=O)(c1cnn(Cc2ccccc2)c1)N1CCC(Oc2ncnc3ccsc23)CC1
*A* 25 to 50%

###

- tgt: IRAK-M (Homo sapiens, UniProt Q9Y616)
- test_method_notes: IRAK-M binding inhibitory activity (KINOMEscan active site-dependent competitive assay)
- Parameters: purchased Eurofins Discover X
- run_parameters: concentration of the test compound 1 μM; first symbol of cell; read-out: IRAK-M binding inhibition activity % Ctrl
Structures can show the parent of a compound that is named as a salt.
Catalogue of remaining binding at 1 µM readings, one per entry.

>>> assay_result("CN[C@@H](C)C(=O)N[C@H](C(=O)N1CCN(C(=O)c2cc3cc(F)c(F)cc3n2CC(=O)N2CCOC[C@@H]2COc2cc(CN3CCC(Oc4ccnc5ccsc45)CC3)on2)CC1)C1CCCCC1")
"25 to 50%"
>>> assay_result("O=C(Cn1nccn1)N1CCC(Oc2ccnc3ccsc23)CC1")
"50 to 75%"
>>> assay_result("CN[C@@H](C)C(=O)N[C@H](C(=O)N1CCN(C(=O)c2c(C(=O)NCCOCCOCCOc3cc(CN4CCC(Oc5ccnc6ccsc56)CC4)on3)c3cc(F)c(OC)cc3n2C)CC1)C1CCCCC1")
"< 25%"
>>> assay_result("CN[C@@H](C)C(=O)N[C@H](C(=O)N1CCN(C(=O)c2cc3cc(F)c(F)cc3n2CC(=O)N2CCC[C@H]2COc2cc(CN3CCC(Oc4ccnc5ccsc45)CC3)on2)CC1)C1CCCCC1 [Example 25, hydrochloride]")
"< 25%"
>>> assay_result("O=S(=O)(c1ccccc1Oc1ccc(F)cc1)N1CCC(Oc2ncnc3ccsc23)CC1")
"< 25%"
>>> assay_result("c1csc(CN2CCC(Oc3ccnc4ccsc34)CC2)n1")
"25 to 50%"
>>> assay_result("CN[C@@H](C)C(=O)N[C@H](C(=O)N1CCN(C(=O)c2c(C(=O)NCCOCCOCCOc3cc(CN4CCC(Oc5ccnc6ccsc56)CC4)on3)c3cc(F)c(F)cc3n2C)[C@@H](C)C1)C1CCCCC1")
"< 25%"
>>> assay_result("C=CCn1oc(CN2CCC(Oc3ccnc4ccsc34)CC2)cc1=O")
"25 to 50%"

*Q* Note down remaining binding at 1 µM recorded for Ic1cc2ncnc(OC3CCOCC3)c2s1
*A* ≥ 75%

*Q* Note down remaining binding at 1 µM recorded for CN[C@@H](C)C(=O)N[C@H](C(=O)N1CCN(C(=O)c2c(Cl)c3cc(F)ccc3n2CC(=O)N(C)CCOCCOCCOCCOc2cc(CN3CCC(Oc4ccnc5ccsc45)CC3)on2)CC1)C1CCCCC1
*A* 25 to 50%
